Listed below: Kd values for each entry.
targetOfAssay: JAK2 (JH1 domain-catalytic, Y1007F, Y1008F) kinase (Homo sapiens (Human), UniProt O60674, Y1007F/Y1008F)
Sequence (O60674 849-1124 Y1007F/Y1008F): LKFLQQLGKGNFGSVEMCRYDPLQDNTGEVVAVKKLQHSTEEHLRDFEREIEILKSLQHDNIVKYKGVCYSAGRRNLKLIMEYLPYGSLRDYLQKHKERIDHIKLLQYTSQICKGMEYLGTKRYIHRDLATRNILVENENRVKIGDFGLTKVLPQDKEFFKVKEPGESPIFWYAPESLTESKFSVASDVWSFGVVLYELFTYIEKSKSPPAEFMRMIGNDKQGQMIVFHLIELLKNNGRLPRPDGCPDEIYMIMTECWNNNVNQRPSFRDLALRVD
protocolDetails: JAK2 JH1 Domain Binding Assay
conditionSummary: qPCR readout

COCCOc1n[nH]c2ncc(N3CC[C@@H]4[C@@H](C3)OCCN4C(=O)Nc3cc(C(F)(F)F)cn(C)c3=O)cc12 | 0.01 to 0.05 µM

Data request: Give its Kd value. Item: CCN1CCN(Cc2ccc(NC(=O)N(C)C3CCN(c4cnc5[nH]nc(OC)c5c4)CC3)cc2C(F)(F)F)CC1
Data returned: < 0.01 µM

Data request: Give its Kd value. Item: CN(C(=O)Nc1cc(C(F)(F)F)cn(C)c1=O)C1CCN(c2cnc3[nH]cc(C4CC4)c3n2)CC1
Data returned: < 0.01 µM

Data request: Give its Kd value. Item: CC(=O)Nc1cnc(N2CC[C@@H](N(C)C(=O)Nc3cc(C(F)(F)F)cn(C)c3=O)C[C@H]2C)cn1
Data returned: 0.01 to 0.05 µM

Data request: Give its Kd value. Item: CN(C(=O)Nc1cc(C(F)(F)F)cn(C)c1=O)C1CCN(c2cnc(NC(=O)C3CC3)cn2)CC1
Data returned: < 0.01 µM

Data request: Give its Kd value. Item: CN(C(=O)Nc1cc(C(F)(F)F)cn(C)c1=O)C1CCN(c2cnc3cncn3c2)CC1
Data returned: 0.05 to 1 µM

---

targetOfAssay: JAK2 (JH1 domain-catalytic, Y1007F, Y1008F) kinase (Homo sapiens (Human), UniProt O60674, Y1007F/Y1008F)
protocolDetails: JAK2 JH1 Domain Binding Assay
conditionSummary: qPCR readout
Listed below: Kd values for each entry.

Data request: Give its Kd value. Item: CN(C(=O)Nc1cc(C(F)(F)F)cn(C)c1=O)[C@H]1CCN(c2cnc3[nH]ccc3n2)CC1(F)F (single isomer, unassigned) [Example I-27-b]
Data returned: < 10 nM

Data request: Give its Kd value. Item: COCCOc1n[nH]c2ncc(N3CC[C@H]4[C@H](C3)OCCN4C(=O)Nc3cc(C(F)(F)F)cn(C)c3=O)cc12 [Example I-162-a]
Data returned: < 10 nM

Data request: Give its Kd value. Item: C[C@@H]1C[C@H](N(C)C(=O)Nc2cc(C(F)(F)F)cn(C)c2=O)CCN1c1cnc2[nH]ccc2n1 [Example I-126-b]
Data returned: < 10 nM

Data request: Give its Kd value. Item: COCCOc1n[nH]c2ncc(C34CC(N(C)C(=O)Nc5cc(C(F)(F)F)cn(C)c5=O)(C3)C4)cc12 [Example I-157]
Data returned: < 10 nM

Data request: Give its Kd value. Item: CO[C@@H]1CN(c2cnc3[nH]ncc3c2)CC[C@H]1N(C)C(=O)Nc1cc(C(F)(F)F)cn(C)c1=O [Example I-109-a]
Data returned: 10 to 50 nM

Data request: Give its Kd value. Item: CNc1n[nH]c2ncc(N3CC[C@@H](N(C)C(=O)Nc4cc(C(F)(F)F)cn(C)c4=O)[C@@H](F)C3)cc12 [Example I-97-a]
Data returned: < 10 nM

Data request: Give its Kd value. Item: CN(C(=O)Nc1cc(C(F)(F)F)cn(C)c1=O)C1CCCN(c2cnc3[nH]ccc3n2)CC1 (single isomer, unassigned) [Example I-41-b]
Data returned: 50 to 1000 nM

Data request: Give its Kd value. Item: CN(C(=O)Nc1cc(C(F)(F)F)ccn1)[C@@H]1CCN(c2cnc3[nH]ncc3c2)CC1(F)F (mixture of isomers) [Example I-146-a]
Data returned: < 10 nM

Data request: Give its Kd value. Item: CC(=O)Nc1cnc(C2=CC[C@H](N(C)C(=O)Nc3cc(C(F)(F)F)cn(C)c3=O)CC2)cn1 [Example I-140-b]
Data returned: < 10 nM

Data request: Give its Kd value. Item: COc1n[nH]c2ncc(N3CCC(N(C)C(=O)Nc4cc(C(F)(F)F)cn(C)c4=O)CC3)cc12 [Example I-69]
Data returned: < 10 nM

Data request: Give its Kd value. Item: [2H]C1([2H])C[C@@H](N(C)C(=O)Nc2cc(C(F)(F)F)cn(C)c2=O)[C@H](OC)C([2H])([2H])N1c1cnc2[nH]ncc2c1 [Example I-153-a]
Data returned: < 10 nM

Data request: Give its Kd value. Item: CN(C(=O)Nc1cc(C(F)(F)F)cn(C)c1=O)C1CCN(c2cnn3cc(O[C@H]4CC[C@@H]4O)ncc23)CC1 [Example I-129-b]
Data returned: < 10 nM

Data request: Give its Kd value. Item: CN(C(=O)Nc1cc(C(F)(F)F)cn(C)c1=O)[C@H]1CCN(c2cnc3[nH]ncc3n2)C[C@H]1F [Example I-83-a]
Data returned: < 10 nM

Data request: Give its Kd value. Item: CN(C(=O)Nc1cc(C(F)(F)F)cn(C)c1=O)C1CCN(c2cnc3[nH]cc(C#N)c3n2)CC1 [Example I-59]
Data returned: < 10 nM

Data request: Give its Kd value. Item: CO[C@H]1CN(c2cnc3[nH]nc(N(C)C)c3c2)CC[C@@H]1N(C)C(=O)Nc1cc(C(F)(F)F)cn(C)c1=O [Example I-115-b]
Data returned: 50 to 1000 nM

Data request: Give its Kd value. Item: Cc1n[nH]c2ncc(N3CCC(N(C)C(=O)Nc4cc(C(F)(F)F)cn(C)c4=O)C(F)(F)C3)cc12 (single isomer, unassigned) [Example I-36-a]
Data returned: < 10 nM

Data request: Give its Kd value. Item: CN(C(=O)Nc1cc(C(F)(F)F)cn(C)c1=O)C1(C)CCN(c2cnc3[nH]cc(F)c3n2)CC1 [Example I-56]
Data returned: 10 to 50 nM

---

targetOfAssay: JAK2 (JH1 domain-catalytic, Y1007F, Y1008F) kinase (Homo sapiens (Human), UniProt O60674, Y1007F/Y1008F)
protocolDetails: JAK2 JH1 Domain Binding Assay
conditionSummary: qPCR readout
attributeMeasured: Kd

Consider the worked cases shown below.
Cc1cc2nc(N3CCC(N(C)C(=O)Nc4cc(C(F)(F)F)cn(C)c4=O)C(F)(F)C3)cnc2[nH]1 (single isomer, unassigned) [Example I-37-a] | < 10 nM
CO[C@H]1C[C@@H](n2[nH]c3ncc(N4CCC(N(C)C(=O)Nc5cc(C(F)(F)F)cn(C)c5=O)CC4)cc3c2=O)C1 | 50 to 1000 nM

With those in mind, consider the next molecule.
Data request: Give its Kd value. Item: C[C@H]1CN(C(=O)Nc2cc(C(F)(F)F)cn(C)c2=O)C2(CCN(c3cnc4[nH]ccc4n3)CC2)C1 (single isomer, unassigned)
Data returned: 50 to 1000 nM

---

targetOfAssay: JAK2 (JH1 domain-catalytic, Y1007F, Y1008F) kinase (Homo sapiens (Human), UniProt O60674, Y1007F/Y1008F)
protocolDetails: JAK2 JH1 Domain Binding Assay
conditionSummary: qPCR readout
attributeMeasured: Kd

Consider the worked cases shown below.
CN(C(=O)Nc1cc(C(F)(F)F)cn(C)c1=O)[C@@H]1CCN(c2cnc3[nH]ncc3c2)C[C@H]1OC(F)F.CN(C(=O)Nc1cc(C(F)(F)F)cn(C)c1=O)[C@H]1CCN(c2cnc3[nH]ncc3c2)C[C@@H]1OC(F)F (mixture of isomers) [Example I-167-a] | 50 to 1000 nM
COc1cc(NC(=O)C2CC2)ncc1N1CCC(N(C)C(=O)Nc2cc(C(F)(F)F)cn(C)c2=O)CC1 [Example I-137] | 10 to 50 nM

With those in mind, consider the next compound.
Data request: Give its Kd value. Item: COCc1cc2nc(N3CC[C@H](N(C)C(=O)Nc4cc(C(F)(F)F)cn(C)c4=O)C(F)(F)C3)cnc2[nH]1 [Example I-110-b]
Data returned: < 10 nM

---

targetOfAssay: JAK2 (JH1 domain-catalytic, Y1007F, Y1008F) kinase (Homo sapiens (Human), UniProt O60674, Y1007F/Y1008F)
protocolDetails: JAK2 JH1 Domain Binding Assay
conditionSummary: qPCR readout
pKd: −log10 of the molar value.
attributeMeasured: pKd

Consider the worked cases shown below.
CO[C@H]1CN(c2cnc3[nH]c(C)cc3n2)CC[C@@H]1N(C)C(=O)Nc1cc(C(F)(F)F)cn(C)c1=O [Example I-117-b] | 6.00 to 7.30
COc1n[nH]c2ncc(N3CCC(N(C)C(=O)Nc4cc(C(F)(F)F)ccn4)CC3)cc12 [Example I-138] | > 8.00
CN(C(=O)Nc1cc(C(F)(F)F)cn(C)c1=O)[C@@H]1CCN(c2cnc3[nH]n(C)c(=O)c3c2)C[C@@H]1F [Example I-89-a] | 7.30 to 8.00
CN(C(=O)Nc1cc(C(F)(F)F)cn(C)c1=O)C1CCN(c2cnc3[nH]c(C4CC4)cc3n2)CC1 [Example I-25] | > 8.00
CN(C(=O)Nc1cc(C(F)(F)F)cn(C)c1=O)[C@@H]1CCN(c2cnc3[nH]n(C)c(=O)c3c2)C[C@H]1F [Example I-90-b] | 7.30 to 8.00
CN(C(=O)Nc1cc(C(F)(F)F)cn(C)c1=O)[C@@H]1CCN(c2cnc(NC(=O)C3CC3)cn2)CC1(F)F (single isomer, unassigned) [Example I-34-a] | > 8.00
CO[C@@H]1CN(c2cnc3[nH]c(C)cc3n2)CC[C@H]1N(C)C(=O)Nc1cc(C(F)(F)F)cn(C)c1=O [Example I-117-a] | 6.00 to 7.30
CN(C(=O)Nc1cc(C(F)(F)F)cn(C)c1=O)C12CC(c3cnc4[nH]nc(OC[C@H]5COCCO5)c4c3)(C1)C2 [Example I-158] | > 8.00

Data request: Give its pKd value. Item: CC(=O)Nc1cnc(N2CCC(CC(=O)Nc3cccc(C(F)(F)F)c3)CC2)cn1 [Example I-6]
Data returned: 6.00 to 7.30

Data request: Give its pKd value. Item: CN(C)C(=O)Nc1cnc(N2CCC(N(C)C(=O)Nc3cc(C(F)(F)F)cn(C)c3=O)CC2)cn1 [Example I-48]
Data returned: 7.30 to 8.00

Data request: Give its pKd value. Item: CC(=O)Nc1cnc(N2CCC(N(C)C(=O)Nc3cccc(C(F)(F)F)c3)CC2)cn1 [Example I-16]
Data returned: > 8.00

Data request: Give its pKd value. Item: CC(=O)Nc1cnc(N2CC[C@H](N(C)C(=O)Nc3cc(C(F)(F)F)cn(C)c3=O)C(F)(F)C2)cn1 (single isomer, unassigned) [Example I-35-b]
Data returned: > 8.00

Data request: Give its pKd value. Item: CC(=O)Nc1cnc(N2CCC(CC(=O)Nc3cc(CN4CCN(C)CC4)cc(C(F)(F)F)c3)CC2)cn1 [Example I-7]
Data returned: 5.30 to 6.00

Data request: Give its pKd value. Item: COCc1cc2nc(N3CC[C@H](N(C)C(=O)Nc4cc(C(F)(F)F)cn(C)c4=O)C[C@@H]3C)cnc2[nH]1 [Example I-127-a]
Data returned: 6.00 to 7.30
